Assignment: determine reported Ki for the given compounds.
Please append the unit to your numeric answer.

Form: Entry = N=C(N)NCCC[C@@H]1NC(=O)[C@@H](Cc2ccc3ccccc3c2)NC(=O)[C@H](Cc2c[nH]cn2)NCC(=O)CC[C@@H](C(N)=O)NC(=O)[C@H](Cc2c[nH]c3ccccc23)NC1=O | System = Melanocortin receptor 4 (Homo sapiens, UniProt P32245) | Ki = ____ 420 nM

Form: Entry = CC(=O)N[C@H]1CSSC[C@@H](C(N)=O)NC(=O)CNC(=O)[C@H](Cc2c[nH]c3ccccc23)NC(=O)[C@H](CCCN=C(N)N)NC(=O)[C@@H](Cc2ccc3ccccc3c2)NC(=O)[C@H](Cc2c[nH]cn2)NC(=O)[C@H](CCC(=O)O)NC1=O | System = Melanocortin receptor 4 (Homo sapiens, UniProt P32245) | Ki = ____ 0.57 nM

Form: Entry = CCC1CC(=O)N[C@H](Cc2ccc3ccccc3c2)C(=O)N[C@@H](CCCN=C(N)N)C(=O)N[C@@H](Cc2c[nH]c3ccccc23)C(=O)N[C@H](C(N)=O)CCCCNC1=O (stereo in doubt; 18) | System = Melanocortin receptor 4 (Homo sapiens, UniProt P32245) | Ki = ____ 1.5 nM

Form: Entry = N=C(N)NCCC[C@@H]1NC(=O)[C@H](Cc2ccc3ccccc3c2)NC(=O)CCC(=O)NC2CCC(C(N)=O)N2C(=O)[C@@H](Cc2c[nH]c3ccccc23)NC1=O (some centres undefined) | System = Melanocortin receptor 4 (Homo sapiens, UniProt P32245) | Ki = ____ 600 nM

Form: Entry = N=C(N)NCCC[C@@H]1NC(=O)[C@@H](Cc2ccc3ccccc3c2)NC(=O)CCC(=O)NCCCC[C@H](C(N)=O)NC(=O)[C@@H](Cc2c[nH]c3ccccc23)NC1=O | System = Melanocortin receptor 4 (Homo sapiens, UniProt P32245) | Ki = ____ 1300 nM

Form: Entry = CC(=O)N[C@H]1CC(=O)NCCCC[C@@H](C(N)=O)NC(=O)[C@H](Cc2c[nH]c3ccccc23)NC(=O)[C@H](CCCNC(=N)N)NC(=O)[C@@H](Cc2ccc3ccccc3c2)NC1=O | System = Melanocortin receptor 4 (Homo sapiens, UniProt P32245) | Ki = ____ 4.3 nM

Form: Entry = N=C(N)NCCC[C@@H]1NC(=O)[C@@H](Cc2ccc3ccccc3c2)NC(=O)[C@H](Cc2c[nH]cn2)NC(=O)CCC(=O)NCCCC[C@@H](C(N)=O)NC(=O)[C@H](Cc2c[nH]c3ccccc23)NC1=O | System = Melanocortin receptor 4 (Homo sapiens, UniProt P32245) | Ki = ____ 0.88 nM

Form: Entry = N=C(N)NCCC[C@@H]1NC(=O)[C@@H](Cc2ccc3ccccc3c2)NC(=O)[C@H](Cc2c[nH]cn2)NC(=O)CCC(=O)NC[C@@H](C(N)=O)NC(=O)[C@H](Cc2c[nH]c3ccccc23)NC1=O | System = Melanocortin receptor 4 (Homo sapiens, UniProt P32245) | Ki = ____ 0.26 nM

Form: Entry = N=C(N)NCCC[C@@H]1NC(=O)[C@@H](Cc2ccc3ccccc3c2)NC(=O)CCC(=O)NCCCC[C@@H](C(N)=O)NC(=O)[C@H](Cc2c[nH]c3ccccc23)NC1=O | System = Melanocortin receptor 4 (Homo sapiens, UniProt P32245) | Ki = ____ 0.5 nM

Provenance of the data: ChEMBL document CHEMBL1134662
